Biological target: UniProt P30966
Sequence (P30966 whole entry): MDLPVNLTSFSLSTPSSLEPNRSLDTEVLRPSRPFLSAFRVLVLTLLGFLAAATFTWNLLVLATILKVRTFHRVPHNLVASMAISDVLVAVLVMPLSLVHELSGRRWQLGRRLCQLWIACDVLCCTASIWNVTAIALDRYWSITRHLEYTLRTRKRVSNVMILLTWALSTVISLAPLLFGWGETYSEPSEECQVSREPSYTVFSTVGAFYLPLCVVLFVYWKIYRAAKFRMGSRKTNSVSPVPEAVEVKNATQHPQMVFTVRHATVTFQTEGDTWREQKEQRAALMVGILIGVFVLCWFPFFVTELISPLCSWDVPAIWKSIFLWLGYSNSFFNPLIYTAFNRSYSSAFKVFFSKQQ
Assay: Binding affinity towards mouse 5-hydroxytryptamine 5A receptor was evaluated using [3H]- LSD as radioligand
property: Ki (nM)
// return numeric value only (unit: nM, not printed)

Ki of c1ccc2c(N3CCNCC3)cccc2c1 on UniProt P30966? 40

====

Biological target: 5-hydroxytryptamine receptor 6 (Homo sapiens, UniProt P50406)
Sequence (P50406 whole entry): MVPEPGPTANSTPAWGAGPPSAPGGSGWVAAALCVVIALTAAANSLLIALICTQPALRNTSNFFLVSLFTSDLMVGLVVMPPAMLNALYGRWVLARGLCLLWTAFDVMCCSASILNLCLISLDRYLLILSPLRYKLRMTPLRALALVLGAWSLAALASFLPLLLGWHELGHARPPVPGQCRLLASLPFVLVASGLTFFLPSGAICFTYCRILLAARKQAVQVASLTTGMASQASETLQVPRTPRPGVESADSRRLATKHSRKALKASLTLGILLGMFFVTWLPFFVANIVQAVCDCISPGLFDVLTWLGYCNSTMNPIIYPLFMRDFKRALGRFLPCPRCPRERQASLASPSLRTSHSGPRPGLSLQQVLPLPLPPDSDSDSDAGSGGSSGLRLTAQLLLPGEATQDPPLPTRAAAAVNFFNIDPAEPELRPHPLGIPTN
Please provide measured Ki for the entries that follow.

Which Ki is reported with 5-hydroxytryptamine receptor 6 (Homo sapiens, UniProt P50406) for this entry: CNc1cc(Br)cc(NS(=O)(=O)c2ccc(N)cc2)c1 ? 20 nM

Also need CN(C)Cc1cn(S(=O)(=O)c2ccccc2)c2ccccc12 , thanks. 3.1 nM

Next: CO[C@H]1c2cccc3c2c(cn3S(=O)(=O)c2ccc(C)cc2)C[C@@H]1N 130 nM

Follow-up entry: c1ccc2c3c([nH]c2c1)CNCC3 > 5000 nM

Follow-up entry: COc1ccc2c(c1)c(CCN(C)C)cn2Cc1ccccc1 6.5 nM

Lookup CN(C)CCc1cn(S(=O)(=O)c2ccccc2)c2ccccc12 4.1 nM

====

Target: 5-hydroxytryptamine receptor 6 (Homo sapiens, UniProt P50406)
Experiment: Binding affinity towards human 5-hydroxytryptamine 6 receptor was evaluated using [3H]-LSD as radioligand
property: Ki

Need Ki of CNS(=O)(=O)c1ccc2[nH]cc(CCN(C)C)c2c1 , thanks. 2.6 µM

And what about the compound CCCN(CCC)C1CCc2cccc(O)c2C1 (stereo not given) [8-OH-DPAT] ? > 10 µM

Similarly, CN1C[C@H](CNC(=O)OCc2ccccc2)C[C@@H]2c3cccc4[nH]cc(c34)C[C@H]21 ? 0.4 µM

Likewise for O=C(CCCN1CCC2(CC1)C(=O)NCN2c1ccccc1)c1ccc(F)cc1 [SPIPERONE] ? 1.59 µM

Try the compound NCCc1c[nH]c2ccc(C(N)=O)cc12 0.72 µM
